EXPERIMENTAL PROTOCOL: Inhibition of Caenorhabditis elegans carbonic anhydrase 4b by CO2 hydration assay
pKi: −log10 of the molar value.
ASSAY READOUT: pKi

Example compounds with recorded pKi:
1. NNC(=O)c1[nH]c2ccc(S(N)(=O)=O)cc2c1-c1ccc(Cl)cc1 ... 8.19
2. NNC(=O)c1[nH]c2ccc(S(N)(=O)=O)cc2c1-c1ccc(F)cc1 ... 8.22
3. NNC(=O)c1[nH]c2ccc(S(N)(=O)=O)cc2c1-c1cccc(F)c1 ... 8.00

A. Cc1cccc(-c2c(C(=O)NN)[nH]c3ccc(S(N)(=O)=O)cc23)c1
B. COc1cccc(-c2c(C(=O)NN)[nH]c3ccc(S(N)(=O)=O)cc23)c1
Query :: Please indicate which entry, A or B , has the lower recorded pKi value. Kindly give the label for the entry you pick.
Result :: B
